Tested on: MDA-N
Assay: NCI tumour cell line growth inhibition, 48 h
Calls of active or inactive are those of the source. Cut-off read from the data, not from the text of the source: active = GI50 up to about 1.1 µM and inactive = higher.
Outcome codes: active, inactive

>  <molecule>
CC(C)C1=CC23CCC4C(C)(C(=O)O)CCCC4(C)C2CC1C1C(=O)N(c2ccc(N4C(=O)C5C6CC7C8(C)CCCC(C)(C(=O)O)C8CCC7(C=C6C(C)C)C5C4=O)cc2)C(=O)C13 (stereo unspecified)

>  <assigned category>
inactive

$$$$
>  <molecule>
CCOC(=O)C(Cc1ccc(O)cc1)Nc1nc(=O)c2c(=O)oc(Cl)cc2o1 (stereo unspecified)

>  <assigned category>
inactive

$$$$
>  <molecule>
N[C@@H](Cc1ccc2oc3cc(=O)c4ccccc4c-3nc2c1)C(=O)O

>  <assigned category>
inactive

$$$$
>  <molecule>
CCOc1cc2c(OCc3ccccc3)cc3c4cc(OC)c(OC)cc4c[n+](C)c3c2cc1OC

>  <assigned category>
active

$$$$
>  <molecule>
O=[N+]([O-])c1ccc(-n2nc3ccc4nonc4c3n2)cc1

>  <assigned category>
inactive

$$$$
>  <molecule>
COC(=O)C12OC(C)(C(CC(=O)OC(C)(C)C)C1=O)C1C(=O)N(c3ccccc3)C(=O)C12 (stereo unspecified)

>  <assigned category>
inactive

$$$$
>  <molecule>
CC1CC/C(=C\c2ccc(Cl)cc2)c2nc(N)c(C#N)c(-c3ccc(Cl)cc3)c21 (stereo unspecified)

>  <assigned category>
inactive

$$$$
>  <molecule>
N#Cc1c(-c2ccccc2)cc(Nc2ccc(F)cc2)n2c1nc1ccccc12

>  <assigned category>
inactive

$$$$
>  <molecule>
CC(=O)NC1C(OCc2ccccc2)OC(CO)C(O)C1OCC(=O)NC(C)C(=O)NC(CCC(=O)OCCNC(=O)c1cccc2cc3ccccc3nc12)C(N)=O (stereo unspecified)

>  <assigned category>
inactive

$$$$
>  <molecule>
N#CC1(C#N)NC(c2ccsc2)C(C#N)(C#N)NC1c1ccsc1 (stereo unspecified)

>  <assigned category>
inactive

$$$$
>  <molecule>
O=c1c2c(sc3ccccc13)NCN(CCc1ccccc1)C2

>  <assigned category>
inactive

$$$$

----------
Tested on: NCI-H522
Experiment: NCI tumour cell line growth inhibition, 48 h
The source made the active and inactive calls. Rule as the data show it: active = GI50 up to about 1.1 µM and inactive = higher.
GI50 values for the compounds below.
experimental endpoint: GI50

>  <test smiles>
Nc1ccc(Oc2ccc(C34CC5C6CC7(c8ccc(Oc9ccc(N)cc9)cc8)CC5C(C3)C(C7)C6C4)cc2)cc1

>  <target or system>
NCI-H522

>  <experimental endpoint>
GI50

>  <value>
> 100 µM (inactive)

$$$$
>  <test smiles>
CC1(C)O[C@H]([C@H](O)c2nnc3ccc(Cl)nn23)[C@@H]([C@H]2COC(C)(C)O2)O1

>  <target or system>
NCI-H522

>  <experimental endpoint>
GI50

>  <value>
> 100 µM (inactive)

$$$$
>  <test smiles>
COC(=O)NC1(NC(=O)OC)NC(=O)c2cc(OC)c(OC)c(OC)c2N1

>  <target or system>
NCI-H522

>  <experimental endpoint>
GI50

>  <value>
6.98 µM (inactive)

$$$$

----------
GI50 values for the molecules below.
Test system: SR
Assay: NCI tumour cell line growth inhibition, 48 h
The source made the active and inactive calls. Rule as the data show it: active = GI50 up to about 1.1 µM and inactive = higher.
experimental endpoint: GI50

>  <molecule>
S=C(N/N=C(/c1ccccc1)c1ccccn1)N1CCCCC1

>  <target or system>
SR

>  <value>
< 0.0166 µM (active)

$$$$
>  <molecule>
CC(C)(C)CI

>  <target or system>
SR

>  <value>
25.4 µM (inactive)

$$$$
>  <molecule>
O=C(CSc1nc2ccccc2c2ccccc12)c1ccccc1

>  <target or system>
SR

>  <value>
> 100 µM (inactive)

$$$$
>  <molecule>
C#CCOC(=O)C=[N+]=[N-]

>  <target or system>
SR

>  <value>
> 10 µM (inactive)

$$$$
>  <molecule>
c1coc(C2=Nc3cccc4cccc(c34)N2)c1

>  <target or system>
SR

>  <value>
> 100 µM (inactive)

$$$$
>  <molecule>
Cc1cc(N2CCN(C)CC2)n2nc(-c3ccc(Cl)cc3)nc2n1

>  <target or system>
SR

>  <value>
17.7 µM (inactive)

$$$$
>  <molecule>
C#C[C@@H](CCCC)OC(=O)N[C@H](C)c1ccccc1

>  <target or system>
SR

>  <value>
21.3 µM (inactive)

$$$$
>  <molecule>
CCOC(=O)C(Cc1ccc(O)cc1)Nc1nc(=O)c2c(=O)oc(Cl)cc2o1 (stereo not given)

>  <target or system>
SR

>  <value>
2.7 µM (inactive)

$$$$
>  <molecule>
CC(NC(=O)Cc1ccccc1)NC(=O)C(C)C(=O)Nc1ccccc1 (stereo not given)

>  <target or system>
SR

>  <value>
> 100 µM (inactive)

$$$$
>  <molecule>
CN(C)c1ccc(/C=N\NC(=O)Nc2cccc3ccccc23)cc1

>  <target or system>
SR

>  <value>
1.6 µM (inactive)

$$$$
>  <molecule>
CC(C)(C)c1cc([Si](C)(C)C)c(C#N)c([Si](C)(C)C)c1

>  <target or system>
SR

>  <value>
34.9 µM (inactive)

$$$$
>  <molecule>
C=C(C1=CC(=O)C(C)(C)O1)[C@@H]1CC=C([C@@H]2CC[C@H]3[C@@]2(C)CC[C@H]2C(C)(C)C(=O)[C@H](OC(=O)CC(C)(O)CC(=O)O)C[C@]32C)[C@H](O)O1 (stereo not given in full)

>  <target or system>
SR

>  <value>
12.6 µM (inactive)

$$$$
>  <molecule>
O=[N+]([O-])c1ccc(-n2nc3ccc4nonc4c3n2)cc1

>  <target or system>
SR

>  <value>
> 100 µM (inactive)

$$$$
>  <molecule>
CC1NCCC(CC(=O)O)C1CC(=O)O (stereo not given)

>  <target or system>
SR

>  <value>
> 100 µM (inactive)

$$$$
>  <molecule>
Clc1ccc(OCc2nnc3n2N=C(c2ccccc2)CS3)c(Cl)c1

>  <target or system>
SR

>  <value>
4.73 µM (inactive)

$$$$
>  <molecule>
COc1cccc(N/C(C)=C2/CCOC2=O)c1

>  <target or system>
SR

>  <value>
> 10 µM (inactive)

$$$$
>  <molecule>
CCCSc1ccc2[nH]c(N3C(=O)/C(=C/c4cc(OC)c(OC)c(OC)c4)N=C3c3ccccc3)cc2c1

>  <target or system>
SR

>  <value>
1.66 µM (inactive)

$$$$
>  <molecule>
CC12CCC(/C(=N/c3ccc([N+](=O)[O-])cc3)C1=O)C2(C)C (stereo not given)

>  <target or system>
SR

>  <value>
22.5 µM (inactive)

$$$$
>  <molecule>
O=C1N[C@@H](COc2ccc(/C=N/c3ccc(CCc4ccc(/N=C/c5ccc(OC[C@@H]6COC(=O)N6)cc5)cc4)cc3)cc2)CO1

>  <target or system>
SR

>  <value>
> 100 µM (inactive)

$$$$
>  <molecule>
COc1cc2c(cc1OC)C13CC[N+]4(C)CC5=CCOC6CC(=O)N2C1C6C5CC34[O-] (stereo not given)

>  <target or system>
SR

>  <value>
> 100 µM (inactive)

$$$$
>  <molecule>
O=S1(=O)CS(=O)(=O)OCCCO1

>  <target or system>
SR

>  <value>
41.2 µM (inactive)

$$$$
>  <molecule>
O=c1cc(NNc2cccc3ccccc23)[nH]c(=O)[nH]1

>  <target or system>
SR

>  <value>
2.61 µM (inactive)

$$$$
>  <molecule>
C=C(C)C1CC2(C)C(C)CC(O)CC2C(OC(=O)C=C(C)C)C1O (stereo not given)

>  <target or system>
SR

>  <value>
17.8 µM (inactive)

$$$$
>  <molecule>
N#Cc1c(-c2ccccc2)cc(Nc2ccc(F)cc2)n2c1nc1ccccc12

>  <target or system>
SR

>  <value>
3.89 µM (inactive)

$$$$
>  <molecule>
Cc1c(Cl)ccc2c(=O)c3cccc(CC(=O)O)c3oc12

>  <target or system>
SR

>  <value>
> 100 µM (inactive)

$$$$
>  <molecule>
O=C1c2cc([N+](=O)[O-])ccc2-c2cccc(F)c21

>  <target or system>
SR

>  <value>
30.3 µM (inactive)

$$$$
>  <molecule>
COC(=O)C(Br)C1CCc2ccccc21 (stereo not given)

>  <target or system>
SR

>  <value>
42.8 µM (inactive)

$$$$
>  <molecule>
CCC1=C(C)C(=O)N/C1=C\c1[nH]c(C)c([C@H](C)CCN)c1C

>  <target or system>
SR

>  <value>
50.6 µM (inactive)

$$$$
>  <molecule>
Oc1nc2cc3nc(O)c(O)nc3cc2nc1O

>  <target or system>
SR

>  <value>
> 10 µM (inactive)

$$$$
>  <molecule>
C/C=C/[C@@H]1[C@H]2C(=O)[C@]3(Cl)[C@@H](/C=C/C)[C@@H]3C(=O)[C@@]12Cl

>  <target or system>
SR

>  <value>
> 100 µM (inactive)

$$$$
>  <molecule>
NC(=S)N/N=C/c1nccc2ccccc12

>  <target or system>
SR

>  <value>
0.664 µM (active)

$$$$
>  <molecule>
CC(C)C1=CC(=O)C(C)(C2=NC(C)(C)CO2)c2ccccc21 (stereo not given)

>  <target or system>
SR

>  <value>
60.3 µM (inactive)

$$$$
>  <molecule>
Cc1ccc(/N=C/C=C(\Nc2ccc(C)cc2)c2ccc3ccccc3c2)cc1

>  <target or system>
SR

>  <value>
0.39 µM (active)

$$$$
>  <molecule>
C/C(=N\NC(N)=S)c1ccc(C)c(C)c1

>  <target or system>
SR

>  <value>
68.9 µM (inactive)

$$$$
>  <molecule>
CC1=NC(=Cc2ccc([N+](=O)[O-])cc2)C(=O)N1n1c(-c2ccccc2)nc2ccccc2c1=O

>  <target or system>
SR

>  <value>
35.2 µM (inactive)

$$$$
>  <molecule>
CCOC(=O)c1ccc(Nc2nc3ccccc3nc2-c2cccs2)cc1

>  <target or system>
SR

>  <value>
26.9 µM (inactive)

$$$$
>  <molecule>
C1CCCCC2(CCCCCCCCC3(CCC1)OCCO3)OCCO2

>  <target or system>
SR

>  <value>
> 100 µM (inactive)

$$$$
>  <molecule>
CC(C)(c1ccc(Oc2ccc(C#N)c(C#N)c2)cc1)c1ccc(Oc2ccc(C#N)c(C#N)c2)cc1

>  <target or system>
SR

>  <value>
> 10 µM (inactive)

$$$$
>  <molecule>
O=C1/C(=C/c2ccccc2)CCC/C1=C\c1ccc(O)c(CN2CCCCC2)c1

>  <target or system>
SR

>  <value>
1.05 µM (active)

$$$$
>  <molecule>
COC(=O)c1ccccc1C1CN=NC12Cc1ccc3ccccc3c1C2=O (stereo not given)

>  <target or system>
SR

>  <value>
36.5 µM (inactive)

$$$$

Reference source for all entries: ChEMBL document CHEMBL1201862
